Experiment: Inhibition of guinea pig liver transglutaminase 2 using 5-(biotinamido)pentylamine as substrate by enzyme linked sorbent assay
Parameters: species or system Cavia porcellus
pIC50: −log10 of the molar value.
Measured Endpoint: pIC50

Please review the entries below; each comes with its answer.
INSERT INTO results (molecule, reported_value) VALUES
  ('C[S+](C)CC(=O)CC[C@H](NC(=O)[C@H](Cc1ccccc1)NC(=O)OCc1ccccc1)C(=O)O.[Br-] (stereo in doubt; 4n)', 5.30),
  ('C[S+](C)CC(=O)CC[C@H](NC(=O)[C@H](Cc1c[nH]c2ccccc12)NC(=O)OCc1ccccc1)C(=O)O', 4.92),
  ('CC[C@H](C)[C@H](NC(=O)OCc1ccccc1)C(=O)N[C@@H](CCC(=O)C[S+](C)C)C(=O)O', 3.46),
  ('C[S+](C)CC(=O)CC[C@H](NC(=O)[C@H](CCCCN)NC(=O)OCc1ccccc1)C(=O)O', 3.82),
  ('CC[S+](CC)CC(=O)CC[C@H](NC(=O)[C@H](Cc1ccccc1)NC(=O)OCc1ccccc1)C(=O)O', 4.70);

1. C[S+](C)CC(=O)CC[C@H](NC(=O)[C@H](Cc1ccccc1)NC(=O)OCC1c2ccccc2-c2ccccc21)C(=O)O
2. C[S+](C)CC(=O)CC[C@H](NC(=O)[C@@H]1CCCN1C(=O)OCc1ccccc1)C(=O)O.[Br-]
Q: Lab notebook, comparison: 1 versus 2 , higher pIC50 goes to which? The response must carry the label of the picked entry.
Ans: 2
(2: 5.30, 1: 4.52)
